system: KRAS-mutant PDC tumor spheroid with HUVEC/MSC, viability; test: Anticancer human tumor 327498-153-R-J2-PDC patient-derived uterine carcinosarcoma cell line growth inhibition [KRAS2]; settings: curve of first compound; second compound 1 µM

# COMPOUND, EXPERIMENTAL TARGET, IC50
data = [
    ("CC(=O)OC12COC1CC(O)C1(C)C(=O)C(O)C3=C(C)C(OC(=O)C(O)C(NC(=O)OC(C)(C)C)c4ccccc4)CC(O)(C(OC(=O)c4ccccc4)C21)C3(C)C (stereo not given) + C=CC(=O)N1CCN(c2nc(OCC3CCCN3C)nc3c2CCN(c2cccc4cccc(C)c24)C3)CC1CC#N", "KRAS-mutant PDC tumor spheroid with HUVEC/MSC, viability", "< 10 nM"),
    ("CC(=O)Nc1cccc(-n2c(=O)n(C3CC3)c(=O)c3c(Nc4ccc(I)cc4F)n(C)c(=O)c(C)c32)c1 + COc1cc2nc(C)nc(NC(C)c3cc(N)cc(C(F)(F)F)c3)c2cc1OC1CCOC1", "KRAS-mutant PDC tumor spheroid with HUVEC/MSC, viability", "2.12 nM"),
    ("O=C(c1cc(Cc2n[nH]c(=O)c3ccccc23)ccc1F)N1CCN(C(=O)C2CC2)CC1 + CC1OCC2(CCN(c3cnc(Sc4ccnc(N)c4Cl)c(N)n3)CC2)C1N", "KRAS-mutant PDC tumor spheroid with HUVEC/MSC, viability", "242 nM"),
    ("CCN1CCN(Cc2ccc(Nc3ncc(F)c(-c4cc(F)c5nc(C)n(C(C)C)c5c4)n3)nc2)CC1 + CNCc1ccccc1-c1csc(C(C)Nc2nc(C)nc3cc(OC)c(OC)cc23)c1", "KRAS-mutant PDC tumor spheroid with HUVEC/MSC, viability", "9.26 nM"),
    ("CC(=O)Nc1cccc(-n2c(=O)n(C3CC3)c(=O)c3c(Nc4ccc(I)cc4F)n(C)c(=O)c(C)c32)c1 + CNCc1ccccc1-c1csc(C(C)Nc2nc(C)nc3cc(OC)c(OC)cc23)c1", "KRAS-mutant PDC tumor spheroid with HUVEC/MSC, viability", "2.35 nM"),
]

====

test system: KRAS-mutant PDC tumor spheroid with HUVEC/MSC, viability; experiment: Anticancer human tumor 327498-153-R-J2-PDC cell line growth inhibition [KRAS2]; conditions: second compound 0.316 µM; first compound 0.01 µM; stronger effect = lower value;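 also: spheroids exposed to agents for seven days before reading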;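 as to viability, T/C: 100% = DMSO vehicle wells so lower means fewer viable cells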

# MOLECULE, UNIT DESCRIPTOR, viability, T/C
records = [
    ("CC(=O)OC12COC1CC(O)C1(C)C(=O)C(O)C3=C(C)C(OC(=O)C(O)C(NC(=O)OC(C)(C)C)c4ccccc4)CC(O)(C(OC(=O)c4ccccc4)C21)C3(C)C (stereo unspecified) + CC1OCC2(CCN(c3cnc(Sc4ccnc(N)c4Cl)c(N)n3)CC2)C1N", "%", 7.22),
    ("CN(C)C/C=C/C(=O)Nc1cc2c(Nc3ccc(F)c(Cl)c3)ncnc2cc1O[C@H]1CCOC1 + CNCc1ccccc1-c1csc(C(C)Nc2nc(C)nc3cc(OC)c(OC)cc23)c1", "%", 67.2),
    ("Cn1ncnc1[C@H]1c2n[nH]c(=O)c3cc(F)cc(c23)N[C@@H]1c1ccc(F)cc1 + CC1OCC2(CCN(c3cnc(Sc4ccnc(N)c4Cl)c(N)n3)CC2)C1N", "%", 38.2),
    ("CC1COCCN1c1cc(-c2ccnn2C)c2ccnc(-c3ccn[nH]3)c2n1 (stereo unspecified) + C=CC(=O)N1CCN(c2nc(OCC3CCCN3C)nc3c2CCN(c2cccc4cccc(C)c24)C3)CC1CC#N", "%", 35.1),
    ("CCN1CCN(Cc2ccc(Nc3ncc(F)c(-c4cc(F)c5nc(C)n(C(C)C)c5c4)n3)nc2)CC1 + C=CC(=O)N1CCN(c2nc(=O)n(-c3c(C)ccnc3C(C)C)c3nc(-c4c(O)cccc4F)c(F)cc23)C(C)C1", "%", 40.5),
    ("CN(C)C/C=C/C(=O)Nc1cc2c(Nc3ccc(F)c(Cl)c3)ncnc2cc1O[C@H]1CCOC1 + C=CC(=O)N1CCN(c2nc(OCC3CCCN3C)nc3c2CCN(c2cccc4cccc(C)c24)C3)CC1CC#N", "%", 44.8),
    ("CC(C)n1nc(-c2ccc3oc(N)nc3c2)c2c(N)ncnc21 + C=CC(=O)N1CCN(c2nc(OCC3CCCN3C)nc3c2CCN(c2cccc4cccc(C)c24)C3)CC1CC#N", "%", 15.8),
    ("CC(C)n1nc(-c2ccc3oc(N)nc3c2)c2c(N)ncnc21 + CC1OCC2(CCN(c3cnc(Sc4ccnc(N)c4Cl)c(N)n3)CC2)C1N", "%", 14.3),
    ("CN(C)C/C=C/C(=O)Nc1cc2c(Nc3ccc(F)c(Cl)c3)ncnc2cc1O[C@H]1CCOC1 + C=CC(=O)N1CCN(c2nc(=O)n(-c3c(C)ccnc3C(C)C)c3nc(-c4c(O)cccc4F)c(F)cc23)C(C)C1", "%", 106),
    ("CC(=O)Nc1cccc(-n2c(=O)n(C3CC3)c(=O)c3c(Nc4ccc(I)cc4F)n(C)c(=O)c(C)c32)c1 + CNCc1ccccc1-c1csc(C(C)Nc2nc(C)nc3cc(OC)c(OC)cc23)c1", "%", 48.5),
    ("CC1COCCN1c1cc(-c2ccnn2C)c2ccnc(-c3ccn[nH]3)c2n1 (stereo unspecified) + COc1cc2nc(C)nc(NC(C)c3cc(N)cc(C(F)(F)F)c3)c2cc1OC1CCOC1", "%", 81.8),
]
